Source: paper PMC12091843

- Tested on: AB 17978
- experiment.notes: Broth microdilution antibacterial activity
- Assay type: cell-based
- study.conditions: Acinetobacter baumannii, read-out: MIC AB 17978
Give measured MIC for each item. Keep answers brief.
One number for each entry, in µg/mL.

In the examples that follow, each entry is paired with its recorded MIC.
{"columns": ["molecule", "value.observed"],
 "data": [
  ["CCN1CCC(CCNCc2cc3cc(-c4ccccc4)ccc3nc2SCc2ccccc2)CC1", 8],
  ["O=C(N[C@H](CO)[C@H](O)c1ccc([N+](=O)[O-])cc1)C(Cl)Cl [Chloramphenicol, reference compound]", 64]
]}

Please find the next molecule below.
Prompt: GET /values?readout=MIC&item= COc1cc2cc(CNCCC3CCN(C4CCCC4)CC3)c(SCc3ccccc3)nc2c(OC)c1OC
Completion: 64
